EXPERIMENTAL_SYSTEM: T1, ZAP-70 (zeta-associated protein of 70 kDa), construct spanning residues 1-606, wild type (UniProt P43403 1-606)
T1 sequence (looked up): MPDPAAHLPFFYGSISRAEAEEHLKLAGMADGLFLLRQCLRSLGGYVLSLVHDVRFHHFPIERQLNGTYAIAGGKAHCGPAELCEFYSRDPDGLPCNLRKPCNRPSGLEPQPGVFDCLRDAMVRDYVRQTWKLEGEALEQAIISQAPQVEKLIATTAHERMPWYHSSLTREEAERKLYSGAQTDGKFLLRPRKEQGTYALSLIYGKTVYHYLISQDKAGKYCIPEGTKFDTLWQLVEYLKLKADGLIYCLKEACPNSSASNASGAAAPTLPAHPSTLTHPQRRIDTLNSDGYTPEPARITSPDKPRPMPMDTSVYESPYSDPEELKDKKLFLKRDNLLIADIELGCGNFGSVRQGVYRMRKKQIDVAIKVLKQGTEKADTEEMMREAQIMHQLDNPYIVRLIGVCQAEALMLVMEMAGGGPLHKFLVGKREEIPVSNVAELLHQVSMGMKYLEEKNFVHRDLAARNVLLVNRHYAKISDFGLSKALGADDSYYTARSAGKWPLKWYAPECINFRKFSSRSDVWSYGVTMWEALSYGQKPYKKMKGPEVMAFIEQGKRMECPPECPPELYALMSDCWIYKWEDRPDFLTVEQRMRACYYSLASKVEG
ASSAY_EXPLANATION: fluorescence polarisation
Square brackets hold non-standard residues; d marks the D form. Ends that are not written are not given here. pY = N[C@@H](Cc1ccc(OP(=O)(O)O)cc1)C(=O)O

{"BINDER": "C(TAMRA C5 maleimide)GNQL[pY]NELNLGRREE[pY]DVLD", "Kd": "45.7 nM"}
